Reference source for all entries: ChEMBL document CHEMBL3421630

# subject of test: Polyunsaturated fatty acid 5-lipoxygenase (Homo sapiens)
# Sequence (P09917 whole entry): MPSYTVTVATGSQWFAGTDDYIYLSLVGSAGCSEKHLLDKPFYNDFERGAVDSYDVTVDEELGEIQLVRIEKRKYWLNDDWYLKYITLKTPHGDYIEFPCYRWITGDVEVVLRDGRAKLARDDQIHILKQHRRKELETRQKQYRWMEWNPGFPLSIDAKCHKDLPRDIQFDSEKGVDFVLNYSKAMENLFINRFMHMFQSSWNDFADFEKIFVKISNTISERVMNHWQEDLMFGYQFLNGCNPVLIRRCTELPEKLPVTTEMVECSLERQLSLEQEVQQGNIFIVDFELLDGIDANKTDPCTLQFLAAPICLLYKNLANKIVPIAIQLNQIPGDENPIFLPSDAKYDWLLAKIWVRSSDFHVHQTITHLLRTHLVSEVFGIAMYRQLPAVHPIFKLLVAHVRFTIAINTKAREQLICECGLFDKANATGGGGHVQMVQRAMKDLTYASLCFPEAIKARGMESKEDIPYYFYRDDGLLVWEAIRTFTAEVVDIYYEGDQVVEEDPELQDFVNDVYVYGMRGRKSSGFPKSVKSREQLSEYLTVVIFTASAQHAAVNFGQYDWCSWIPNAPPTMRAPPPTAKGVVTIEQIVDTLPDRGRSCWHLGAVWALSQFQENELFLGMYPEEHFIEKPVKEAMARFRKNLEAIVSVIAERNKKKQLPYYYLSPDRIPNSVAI
# assay name: Inhibition of human recombinant 5-LOX expressed in Escherichia coli BL21 DE3 assessed as reduction in 5-LO product formation pre-incubated for 10 mins by RP-HPLC method
measurement kind: IC50

# smiles record, measurement kind, value observed
records = [
    ("O=C(NCCCC[C@@H](CO)NC(=O)c1cccc(O)c1O)c1cccc(O)c1O", "IC50", "1.9 µM"),
]

---

# System: HeLa
# assay name: Inhibition of cell proliferation of human HeLa cells after 72 hrs by methylene blue dye based assay
# Type: functional
pIC50: −log10 of the molar value.
measurement kind: pIC50

# smiles record, subject of test, measurement kind, value observed
records = [
    ("O=C(NCCCC[C@@H](CO)NC(=O)c1cccc(O)c1O)c1cccc(O)c1O", "HeLa", "pIC50", 3.52),
]
